biological target: SCRIB_1, Q14160; experiment: holdup assay; set-up: key: below the threshold = too weak to quantify, mostly under pKd 3.1 to 4; settings: plain residues with an end cap or a label only (N-terminal biotin on a linker: ttds)
Sequence (Q14160 718-814): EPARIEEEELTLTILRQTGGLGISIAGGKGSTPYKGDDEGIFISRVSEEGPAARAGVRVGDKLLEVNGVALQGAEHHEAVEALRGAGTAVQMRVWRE
Assay readout: pKd
Could you respond with only the numeric value?

Examples with answers:
Binder	Observed result
DKDPHSETAL [TMIGD1, Q6UXZ0]	4.64
RLPKIKETTV [FRMPD4, Q14CM0]	4.95
FHPLGADSQV [SLC2A1, P11166]	4.02

// switching to the query binder
[ask] Name the recorded pKd for KKYVDAETSL [SLC4A7, Q9Y6M7] .
[reply] 5.54
